Where these numbers come from: ChEMBL document CHEMBL4513216

test: Toxicity liver stage against HepG2, at 10uM; type: cell-based; design: test concentration 10 uM, cell line HepG2-A16-CD81EGFP; conditions: human, HepG2-A16-CD81EGFP cells; read-out: INHIBITION
Each record here notes measured cytotoxicity at 10 µM.
Quick reminder: number only, in %, skip the unit.

Consider the following illustrative entries.
1) CC(C)C(=O)N1CCN(S(C)(=O)=O)CC2(CC(=O)N(C)C2)C1 (stereo unspecified) = 8.91
2) NCc1cnn(-c2ccccc2C(=O)NCCc2ccncc2)c1 = 0.664
3) CC(C)N1CC(NC(=O)c2ccc(Cl)s2)CC1=O (stereo unspecified) = -8.51
4) COCCOc1ccnc(-c2noc([C@@H]3CCCN3CC(C)C)n2)c1 = -8.64
5) CCn1cnnc1CNC(=O)N1CCN(c2ccccc2OC)CC1 = -6.02

From here, focus on the item given below.
Consider the molecule shown here: CC(=O)N1CCCCCC1C1CCN(Cc2nc(C(C)C)no2)CC1 (stereo unspecified) What is its recorded cytotoxicity at 10 µM?
6.27

* * *

assay: Toxicity liver stage against HepG2, at 10uM; assay type: cell-based; set-up: test concentration 10 uM, cell line HepG2-A16-CD81EGFP; conditions: human, HepG2-A16-CD81EGFP cells; read-out: INHIBITION
attribute-measured: cytotoxicity at 10 µM (%)
Quick reminder: number only, in %, skip the unit.

1) CSCc1nc(CCNC(=O)C2CCCN(C(C)=O)C2)cs1 (stereo unspecified) = -4.84

Consider the compound shown here: CNS(=O)(=O)c1ccccc1N1CCN(C(C)C(=O)OC)CC1 (stereo unspecified) What is its recorded cytotoxicity at 10 µM?
0.375

Consider the compound shown here: O=C(CCOc1ccccc1)N1CCCC(c2ncc[nH]2)C1 (stereo unspecified) What is its recorded cytotoxicity at 10 µM?
-2.68

Consider the compound shown here: `O=C(CCNCc1cccc2c1OCCCO2)NC1CCCC1` What is its recorded cytotoxicity at 10 µM?
0.66

Consider the compound shown here: CN1CCOC(C(=O)N2CCOC3(CCCC3)C2)C1 (stereo unspecified) What is its recorded cytotoxicity at 10 µM?
7.28

Consider the compound shown here: N#Cc1cc(F)ccc1CN1CCCCC1Cn1cccn1 (stereo unspecified) What is its recorded cytotoxicity at 10 µM?
-2.93

Consider the compound shown here: `Cc1cc(NC(=O)CNC(C)(C)c2ccccc2)on1` What is its recorded cytotoxicity at 10 µM?
-8.18

Consider the compound shown here: `CC(C)(C)C(=O)N1CCN(C(=O)Nc2cnn(CC(F)F)c2)CC1` What is its recorded cytotoxicity at 10 µM?
9.62

Consider the compound shown here: `CCc1ncc(CN2CCN(CCOC)CC2)cn1` What is its recorded cytotoxicity at 10 µM?
-21.7

Consider the compound shown here: CCn1ncnc1C(C)Nc1cc(C2CCNCC2)nc(C)n1 (stereo unspecified) What is its recorded cytotoxicity at 10 µM?
-6.77

Consider the compound shown here: Cc1cc(NC(=O)N2CCCC2CN2CCOCC2)nn1C (stereo unspecified) What is its recorded cytotoxicity at 10 µM?
1.63

Consider the compound shown here: CCCc1noc(C2CC(=O)N(CCN(C)C)C2)n1 (stereo unspecified) What is its recorded cytotoxicity at 10 µM?
5.48

Consider the compound shown here: COC(=O)NCC1CCC2(CCNCC2)O1 (stereo unspecified) What is its recorded cytotoxicity at 10 µM?
1.82

Consider the compound shown here: COc1ccccc1CNC(=O)CN(C)C(C)c1ccon1 (stereo unspecified) What is its recorded cytotoxicity at 10 µM?
-4.29

Consider the compound shown here: COCCCN1CCCN(C(C)c2nc(C3CC3)no2)CC1 (stereo unspecified) What is its recorded cytotoxicity at 10 µM?
-8.77

Consider the compound shown here: NCC(c1cccnc1)N1CCOCC1 (stereo unspecified) What is its recorded cytotoxicity at 10 µM?
4.32

Consider the compound shown here: `O=C(c1ccn(COc2ccc(F)cc2)n1)N1CCCC1` What is its recorded cytotoxicity at 10 µM?
6.25

Consider the compound shown here: `CC(C)Oc1ncccc1CNC(=O)N1CCC1` What is its recorded cytotoxicity at 10 µM?
-7.6

Consider the compound shown here: CCN1CCC(CNC(=O)C(c2ccccc2F)N(C)C)(N(C)C)CC1 (stereo unspecified) What is its recorded cytotoxicity at 10 µM?
-1.7

Consider the compound shown here: Cc1csc(C(=O)N2CCC(S(C)(=O)=O)C2)c1 (stereo unspecified) What is its recorded cytotoxicity at 10 µM?
-5.21

Consider the compound shown here: Cc1noc(C)c1CN1CCCC(CN(C(=O)OC(C)(C)C)C(C)C)C1 (stereo unspecified) What is its recorded cytotoxicity at 10 µM?
2.42

Consider the compound shown here: `O=C(CN1CCCC1=O)NCc1cccnc1Oc1ccc(F)c(F)c1` What is its recorded cytotoxicity at 10 µM?
1.87

Consider the compound shown here: CS(=O)(=O)CCCNC1CCCN(Cc2noc(C3CC3)n2)C1 (stereo unspecified) What is its recorded cytotoxicity at 10 µM?
1.15
